Target: Serine/threonine-protein kinase 3 (Homo sapiens) (UniProt Q13188);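 note: each value is the mean inhibition of MST2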
Sequence (whole entry): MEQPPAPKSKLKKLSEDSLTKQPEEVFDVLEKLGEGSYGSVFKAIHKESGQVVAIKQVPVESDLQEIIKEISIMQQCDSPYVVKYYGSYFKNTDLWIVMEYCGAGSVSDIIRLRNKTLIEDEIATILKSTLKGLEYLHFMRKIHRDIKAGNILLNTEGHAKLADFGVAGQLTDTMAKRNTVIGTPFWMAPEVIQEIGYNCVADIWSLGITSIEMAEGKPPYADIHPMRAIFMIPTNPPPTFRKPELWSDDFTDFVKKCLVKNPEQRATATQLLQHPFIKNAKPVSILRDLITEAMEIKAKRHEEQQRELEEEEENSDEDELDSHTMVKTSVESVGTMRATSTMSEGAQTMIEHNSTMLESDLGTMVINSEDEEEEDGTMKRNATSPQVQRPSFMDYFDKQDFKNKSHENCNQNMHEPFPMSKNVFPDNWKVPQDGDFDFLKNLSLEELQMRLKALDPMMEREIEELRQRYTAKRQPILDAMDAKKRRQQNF
Settings: at 1 µM
Reported inhibition by item:
Number in %, nothing else.

# Molecule, inhibition / %
rows = [
    ("O=C1Nc2ccccc2/C1=C/Nc1ccc(-n2cncn2)cc1", 35.7),
    ("NC(=O)Cc1ccccc1Oc1nccc(-c2c(-c3ccc(F)cc3)ncn2C2CCNCC2)n1", 4.24),
    ("COc1cccc(-n2cnc3c(N/N=C/c4ccncc4)ncnc32)c1", 7.42),
    ("NCc1ccc(-n2c(-c3nonc3N)nc3cnccc32)cc1", 13.1),
    ("COc1cc2ncn(-c3cc(OCCc4ccccc4)c(C(N)=O)s3)c2cc1OC", 11),
    ("NC(=O)c1ccc(Oc2nccc(-c3c(-c4ccc(F)cc4)ncn3C3CCNCC3)n2)cc1", 7.98),
    ("CN(c1ccc(NC(=O)Nc2c(Cl)cccc2Cl)cc1)c1ccnc(Nc2cccc(CS(C)(=O)=O)c2)n1", 11.5),
    ("COC(=O)Nc1nc2ccc(Sc3ccc(NC(=O)Nc4cc(C(F)(F)F)ccc4F)cc3)cc2[nH]1", 1.83),
    ("C[C@@H](Oc1cc(-n2cnc3ccc(OCC4CCN(C)CC4)cc32)sc1C(N)=O)c1ccccc1Cl", 39.7),
    ("COc1ccc(-c2ccc3c(NC(=O)C4CC4)n[nH]c3n2)cc1", 5.21),
]

Any idea what its inhibition is? The molecule is "CS(=O)(=O)CCNCc1ccc(-c2ccc3ncnc(Nc4ccc(OCc5ccccc5)c(Br)c4)c3c2)o1"
5.08

Any idea what its inhibition is? The molecule is "Fc1ccc(-c2ncn(CCCN3CCOCC3)c2-c2ccncc2)cc1"
2.5

Any idea what its inhibition is? The molecule is "NC(=O)c1cc(-c2ccc(F)cc2)cc(-c2ccncc2)c1N"
5.48

---

Target: Calcium/calmodulin-dependent protein kinase type II subunit alpha (Homo sapiens);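 note: reported values are averages (mean inhibition of CAMK2A)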
Details: at 0.1 µM
Reported inhibition by item:
Number in %, nothing else.

// solved cases for inhibition follow
# Structure, Unit String, inhibition
measured = [
    ("CCS(=O)(=O)c1ccc(OC)c(Nc2ncc(-c3ccccc3Cl)o2)c1", "%", 2.2),
    ("NC(=O)Cc1ccccc1Oc1nccc(-c2c(-c3ccc(F)cc3)ncn2C2CCNCC2)n1", "%", 2.81),
    ("COC(=O)Nc1nc2ccc(Sc3ccc(NC(=O)Nc4cc(C(F)(F)F)ccc4F)cc3)cc2[nH]1", "%", 3),
]

Any idea what its inhibition is? The compound is "Fc1ccc(-c2ncn(CCCN3CCOCC3)c2-c2ccncc2)cc1"
0.57

Any idea what its inhibition is? The compound is "C[C@@H](Oc1cc(-n2cnc3ccc(OCC4CCN(C)CC4)cc32)sc1C(N)=O)c1ccccc1Cl"
6.36

Any idea what its inhibition is? The compound is "CN(C)CCOc1ccc(-c2cc(-c3ccc4c(c3)CCC4=NO)c(-c3ccncc3)o2)cc1"
-1.08

Any idea what its inhibition is? The compound is "CN(c1ccc(NC(=O)Nc2c(Cl)cccc2Cl)cc1)c1ccnc(Nc2cccc(CS(C)(=O)=O)c2)n1"
2.56

Any idea what its inhibition is? The compound is "CN(C)CCCNc1nccc(-c2c(-c3ccc(F)cc3)nn3cc(C(F)(F)F)ccc23)n1"
3.05

Any idea what its inhibition is? The compound is "NC(=O)c1cc(-c2ccncc2)cc(-c2ccccc2)c1N"
2.51

Any idea what its inhibition is? The compound is "Fc1ccc(-c2c(-c3ccncc3)nc3n2CCS3)cc1"
0.37

---

Biological target: Inhibitor of nuclear factor kappa-B kinase subunit alpha (Homo sapiens);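 note: mean inhibition of IKKA, from the GSK PKIS data set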
Settings: at 1 µM
Experimental Readout: inhibition
Please answer using the number first and the unit second.

# Structure, Experimental Readout, Measured
records = [
    ("COc1cc(C)c(N(C)C(=O)CN(C)C)cc1Nc1nc(Nc2cccc(F)c2C(N)=O)c2cc[nH]c2n1", "inhibition", "1.85%"),
]

Any idea what its inhibition is? The molecule is "NS(=O)(=O)c1ccc(N/N=C2\C(=O)Nc3ccc(-c4cnco4)cc32)cc1"
35.1%

Any idea what its inhibition is? The molecule is "Cc1ccc(C(=O)NC(C)C)cc1-c1ccc(C(=O)NCC2CC2)cc1"
-1.81%

Any idea what its inhibition is? The molecule is "COc1cc(N2CCN(C(C)C)CC2)ccc1Nc1nc(Nc2ccc(F)cc2C(=O)NC[C@@H](O)CO)c2cc[nH]c2n1"
11.1%

Any idea what its inhibition is? The molecule is "CCN(CC)Cc1ccc(Nc2nccc(-c3cnn4ncccc34)n2)cc1"
34.9%

Any idea what its inhibition is? The molecule is "O=C1Nc2ccccc2/C1=C/Nc1ccc(-n2cncn2)cc1"
2.05%

Any idea what its inhibition is? The molecule is "Cc1ccc(C(=O)NC2CCC2)cc1-c1ccc(C(=O)NCC2CC2)cc1"
2.23%

---

Reported inhibition by item:
Target: Ribosomal protein S6 kinase alpha-3 (Homo sapiens) (UniProt P51812)
Sequence (P51812 whole entry): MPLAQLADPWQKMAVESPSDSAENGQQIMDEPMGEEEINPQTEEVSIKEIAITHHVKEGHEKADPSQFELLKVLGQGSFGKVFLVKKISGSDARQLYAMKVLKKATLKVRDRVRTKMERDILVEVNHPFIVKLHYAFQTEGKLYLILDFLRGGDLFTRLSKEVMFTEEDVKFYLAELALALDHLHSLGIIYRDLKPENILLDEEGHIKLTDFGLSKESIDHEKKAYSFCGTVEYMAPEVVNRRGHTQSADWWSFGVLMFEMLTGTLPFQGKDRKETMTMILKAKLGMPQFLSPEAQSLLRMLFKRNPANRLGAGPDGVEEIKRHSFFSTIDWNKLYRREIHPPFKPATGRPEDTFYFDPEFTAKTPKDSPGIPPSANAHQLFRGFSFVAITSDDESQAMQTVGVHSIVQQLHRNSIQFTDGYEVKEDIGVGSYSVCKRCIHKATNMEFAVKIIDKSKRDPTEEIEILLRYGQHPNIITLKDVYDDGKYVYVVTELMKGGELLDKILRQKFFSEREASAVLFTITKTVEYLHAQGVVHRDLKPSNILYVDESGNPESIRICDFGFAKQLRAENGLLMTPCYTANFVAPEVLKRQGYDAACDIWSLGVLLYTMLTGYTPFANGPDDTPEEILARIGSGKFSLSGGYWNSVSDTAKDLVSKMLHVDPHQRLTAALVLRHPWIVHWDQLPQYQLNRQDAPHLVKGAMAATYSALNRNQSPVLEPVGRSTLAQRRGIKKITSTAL
Conditions: at 1 µM
Description: GSK_PKIS: RSK2 mean inhibition at 1 uM [Nanosyn]
Number in %, nothing else.

# Compound, Unit String, inhibition
rows = [
    ("CN(C)CCOc1ccc(-c2cc(-c3ccc4c(c3)CCC4=NO)c(-c3ccncc3)o2)cc1", "%", -0.08),
    ("Cc1ccc(C(=O)NC(C)C)cc1-c1ccc(C(=O)NCC2CC2)cc1", "%", 1.68),
    ("O=C1NC(=O)C(c2cccc(Cl)c2)=C1Nc1ccc(Cl)c(C(=O)O)c1", "%", 1.6),
    ("COc1ccc2cc(-c3c(-c4ccncc4)nc(-c4ccc([S+](C)[O-])cc4C)n3C)ccc2c1 (stereo not given)", "%", -0.28),
    ("COc1cc2ncn(-c3cc(OCCc4ccccc4)c(C(N)=O)s3)c2cc1OC", "%", 0.32),
    ("NS(=O)(=O)c1ccc(N/N=C2\\C(=O)Nc3ccc(C(=O)NCCCn4ccnc4)cc32)cc1", "%", 9.61),
    ("COc1cccc(/C=N/Nc2ncnc3c2cnn3-c2cccc(OC)c2)c1", "%", 1.4),
    ("Cc1nnc(-c2ccc(C)c(-c3ccc(C(=O)NCc4ccc(Cl)cc4)cc3)c2)o1", "%", 2.89),
    ("Fc1ccc(-c2c(-c3ccncc3)nc3n2CCS3)cc1", "%", 6),
    ("CCC(=O)Nc1ccc(C)c(-c2ccc(C(=O)NCC3CC3)cc2)c1", "%", 0.79),
]

Any idea what its inhibition is? The compound is "CCS(=O)(=O)c1ccc(OC)c(Nc2ncc(-c3ccccc3Cl)o2)c1"
4.01

Any idea what its inhibition is? The compound is "Fc1ccc(-c2ncn(C3CCNCC3)c2-c2ccnc(Oc3ccc(F)c(F)c3)n2)cc1"
1.32

Any idea what its inhibition is? The compound is "NC(=O)c1ccc(Oc2nccc(-c3c(-c4ccc(F)cc4)ncn3C3CCNCC3)n2)cc1"
0.53

---

Molecular target: Protein kinase C alpha type (Homo sapiens) (UniProt P17252);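 note: reported value is the mean inhibition, measured within the GSK PKIS screening panel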
Conditions: at 1 µM
Experimental Readout: inhibition
Please answer using the number first and the unit second.

// solved cases for inhibition follow
# Molecule, inhibition
data = [
    ("NC(=O)Cc1ccccc1Oc1nccc(-c2c(-c3ccc(F)cc3)ncn2C2CCNCC2)n1", "1.51%"),
    ("Cc1ccc(C(=O)NC2CCC2)cc1-c1ccc(C(=O)NCC2CC2)cc1", "-0.23%"),
]

Any idea what its inhibition is? The molecule is "C[C@@H](Oc1cc(-n2cnc3ccc(OC4CCN(C)CC4)cc32)sc1C(N)=O)c1ccccc1Cl"
0.64%

Any idea what its inhibition is? The molecule is Nc1nccc(-c2c(-c3ccc(F)cc3)ncn2C2CCC(O)CC2)n1 (centres undefined)
10.2%

---

Biological target: Insulin receptor (Homo sapiens) (UniProt P06213);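 note: reported values are averages of replicate inhibition measurements against the insulin receptor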
Sequence (P06213 28-758 limits assumed): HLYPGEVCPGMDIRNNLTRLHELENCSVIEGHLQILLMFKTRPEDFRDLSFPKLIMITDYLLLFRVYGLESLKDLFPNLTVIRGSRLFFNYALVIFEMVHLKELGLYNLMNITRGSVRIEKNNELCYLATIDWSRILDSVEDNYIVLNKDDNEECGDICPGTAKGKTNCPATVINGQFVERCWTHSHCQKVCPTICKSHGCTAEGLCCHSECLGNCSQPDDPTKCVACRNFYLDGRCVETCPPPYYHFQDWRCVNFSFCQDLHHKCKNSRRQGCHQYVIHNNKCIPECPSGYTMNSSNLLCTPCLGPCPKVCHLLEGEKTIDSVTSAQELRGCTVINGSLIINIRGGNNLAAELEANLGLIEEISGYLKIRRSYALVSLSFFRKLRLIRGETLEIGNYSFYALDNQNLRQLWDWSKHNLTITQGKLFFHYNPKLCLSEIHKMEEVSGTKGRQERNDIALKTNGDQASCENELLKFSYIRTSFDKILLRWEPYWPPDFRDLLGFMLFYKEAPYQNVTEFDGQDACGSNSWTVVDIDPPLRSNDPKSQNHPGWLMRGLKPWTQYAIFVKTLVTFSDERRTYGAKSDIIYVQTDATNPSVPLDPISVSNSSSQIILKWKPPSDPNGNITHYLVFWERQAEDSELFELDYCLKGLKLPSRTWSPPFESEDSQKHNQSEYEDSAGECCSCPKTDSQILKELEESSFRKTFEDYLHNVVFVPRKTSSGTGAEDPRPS
Sequence (P06213 763-1382 limits assumed): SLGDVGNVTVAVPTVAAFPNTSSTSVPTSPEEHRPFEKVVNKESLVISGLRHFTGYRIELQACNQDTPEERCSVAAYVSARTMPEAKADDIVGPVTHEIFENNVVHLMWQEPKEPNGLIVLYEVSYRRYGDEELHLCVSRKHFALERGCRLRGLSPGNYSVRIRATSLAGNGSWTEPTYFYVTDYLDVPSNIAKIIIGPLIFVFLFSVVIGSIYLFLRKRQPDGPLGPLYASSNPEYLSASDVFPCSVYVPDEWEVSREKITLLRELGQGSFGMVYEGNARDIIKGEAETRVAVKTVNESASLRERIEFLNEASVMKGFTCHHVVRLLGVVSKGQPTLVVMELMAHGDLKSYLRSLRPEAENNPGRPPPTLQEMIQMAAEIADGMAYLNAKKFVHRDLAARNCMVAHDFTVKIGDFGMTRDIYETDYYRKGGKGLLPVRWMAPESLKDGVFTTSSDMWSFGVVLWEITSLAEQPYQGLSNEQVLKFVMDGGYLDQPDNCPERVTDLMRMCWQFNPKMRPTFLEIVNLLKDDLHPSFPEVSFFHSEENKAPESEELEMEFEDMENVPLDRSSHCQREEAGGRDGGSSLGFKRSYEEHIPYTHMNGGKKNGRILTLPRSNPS
Settings: at 0.1 µM
Experimental Readout: inhibition (%)
Number in %, nothing else.

// solved cases for inhibition follow
# Structure, inhibition / %
rows = [
    ("Cc1nnc(-c2ccc(C)c(-c3ccc(C(=O)NCc4ccc(Cl)cc4)cc3)c2)o1", 5.65),
    ("CCC(=O)Nc1ccc(C)c(-c2ccc(C(=O)NCC3CC3)cc2)c1", 4.28),
    ("NS(=O)(=O)c1ccc(N/N=C2\\C(=O)Nc3ccc(C(=O)NCCCn4ccnc4)cc32)cc1", 6.3),
    ("Fc1ccc(-c2ncn(C3CCNCC3)c2-c2ccnc(Oc3ccc(F)c(F)c3)n2)cc1", -2.06),
]

Any idea what its inhibition is? The compound is "CCN(CC)Cc1ccc(Nc2nccc(-c3cnn4ncccc34)n2)cc1"
21.9
